Tested on: MS2 coat protein
Experiment: apparent Kd, MS2 coat protein; higher = weaker binding; RNA-MaP array; theophylline 2 mM where present
Details: designed as: ON switch for theophylline; no ligand
Attribute: apparent Kd
Your answer is read as nM, so omit the unit and give the number.

Examples from the recorded data:
{"sequence_data": "AGCAUGUUAUCAGAUACCAGACAUCUUUUAAAACAUAUUACAUGAGGAUCACCCAUGUUGGUCCCUUGGCAGCUGAAAUAUUUCA", "unit_descriptor": "nM", "apparent Kd": 272}
{"sequence_data": "AGAUCUUUCGAAAGAAGGAUCUUGGCUGAUACCAGAGACGAAAGUCUCCCUUGGCAGCAGUGCCAACAUGAGGAUCACCCAUGUA", "unit_descriptor": "nM", "apparent Kd": 45.8}

Return value of apparent Kd for input UUAAAUGUGACGGAUACCAGCGUGUUGUAGAACAUGAGGAUCACCCAUGUAGUGAUCAAGCGCCCUUGGCAGCUGGUAUGUUUGA , no commentary.
191
